FYI, the data here is from ChEMBL document CHEMBL1157539.

system: HepG2; experiment: GSK_TCMDC: Percent inhibition of human HepG2 cell line. Test compounds present at 10uM.; assay type: functional
Quick list: Inhibition per entry.
Could you kindly put the unit after your number?

Example cases with answers are listed next.
>>> test_value("COc1ccc(C(=O)N2CCC(C(=O)NC(C)c3ccc(-n4ccnc4)cc3)CC2)c2ccccc12 (centres undefined)")
"12%"
>>> test_value("CCn1c(C=Cc2cc(Br)ccc2O)nc2ccccc2c1=O")
"6%"
>>> test_value("Fc1cc(Cl)ccc1Nc1ccnc2cc(I)ccc12")
"11%"
>>> test_value("COc1ccc2c(c1)ncn2-c1cc(OCc2ccncc2Br)c(C(N)=O)s1")
"14%"
>>> test_value("Br.C[C@@H](COc1ccc(-c2ccccc2)cc1)CON1C(N)=NC(N)=NC1(C)C")
"62%"

Kindly note: HepG2, `Nc1n[nH]c(-c2ccccc2Nc2ccnc3cc(-c4nccs4)ccc23)n1` , Inhibition value reported: 98%

Lab note: compound `CN1CCC(NCc2cccc(-c3ccc(S(=O)(=O)NCCc4ccccn4)c(F)c3)c2)CC1.O=C(O)C(F)(F)F` tested on HepG2; recorded Inhibition was 11%

Measured Inhibition (HepG2), entry `O=C(O)C(F)(F)F.c1cncc(CCNCc2ccc(-c3cccc(-c4nc5ccccc5[nH]4)c3)cc2)c1` : 39%

For the compound `O=C(NC1CC1)c1cnc(N2CCC(c3ccccc3)CC2)c(Cl)c1.O=C(O)C(F)(F)F` , the measured Inhibition on HepG2 was 6%

With HepG2 as the test system, `Cc1cccc2nc(-c3cccc(-c4cccc(NC(=O)c5cnn6cccnc56)c4)c3)[nH]c12` showed Inhibition of 14%

Summary: `Cn1nc(-c2cccc(CNCCc3cccs3)c2)c2cnc(NC3CCCC3)nc21` , HepG2, Inhibition = 8%

Form field, Inhibition with HepG2, item CC(C)CCNC(=O)C1Cc2c([nH]c3ccc(Br)cc23)C2(CCN(CCc3ccccc3)CC2)N1 (centres undefined) : 25%

The value of Inhibition recorded for `Cc1ccc(NC(=O)NC2CCN(c3ccnc4ccccc34)CC2)cc1.O=C(O)C(F)(F)F` when tested on HepG2 reads 21%

Response field Inhibition (HepG2) for item `Cl.NOCCCCOc1ccccc1` : 12%

Reading of Inhibition for `Cc1cccc(CN2CCCN(Cc3ccc(C(=O)Nc4ccc(Cl)cc4)cc3)CC2)c1.O=C(O)C(F)(F)F` with HepG2: 54%

Inhibition for HepG2 with input `COCCNCc1ccc(-c2cccc(CN(C(=O)NCCc3ccccc3)C3CCN(Cc4ccccc4)CC3)c2)cc1.O=C(O)C(F)(F)F` equals 25%

Observed Inhibition, HepG2, `CC(C)(C)c1ccc(C(=O)Nc2ccc(NC(=O)c3ccc([N+](=O)[O-])o3)cc2)cc1` : 0%

Summary line: `CS(=O)(=O)c1ccc2[nH]c(-c3cc(-c4cccc(F)c4)cnc3N)nc2c1.O=C(O)C(F)(F)F` , HepG2, reported Inhibition = 33%

Lab entry: HepG2 assay, compound `COc1cc(F)c2ncc(F)c(CCN3C[C@H](CNCc4ccc5c(n4)NC(=O)CS5)[C@H](O)C3)c2c1.Cl` , Inhibition = 10%

* * *

system: Plasmodium falciparum; assay: GSK_TCMDC: Inhibition of Plasmodium falciparum Dd2 in whole red blood cells, using parasite LDH activity as an index of growth. Test compounds present at 2uM; type: functional
Inhibition values, listed per item
Quick note: give the figure in %, leave out the unit.

Example entries begin here.
>>> test_value("O=C(NCC1CCN(CC2CCCCC2)C1)c1cc(-c2cccc(Cl)c2)cs1.O=C(O)C(F)(F)F (stereo not given)")
8
>>> test_value("O=C(O)C(F)(F)F.c1cc(CN2CCC(CCN3CCCCC3)CC2)cc(-c2csc(-c3nc4ccccc4[nH]3)c2)c1")
99
>>> test_value("CN(C)CCOc1cc(NC(=O)Nc2cccc3c(-c4ccncc4)cccc23)ccc1I.Cl")
28
>>> test_value("COc1cccc(NC(=O)c2ccc(NCCCN3CC(C)CC(C)C3)c([N+](=O)[O-])c2)c1 (stereo not given)")
68
>>> test_value("CC(=O)N1N=C(c2ccccc2)Sc2c1nc(-c1ccc(Cl)cc1)n2C(C)=O")
18
>>> test_value("CC(C)(Oc1ccc(Cl)cc1)C(=O)NCCC1CCN(CCCCCNC(=O)/C=C/c2ccc(Cl)c(Cl)c2)CC1")
37

Consider the additional compound presented here.
Per the records, this compound ( `COc1cc(-c2ccc(-c3cnc(N)nc3OC)[nH]2)cc(OC)c1OC` ) has Inhibition equal to 54
